- Test system: BMDM
- ASSAY_EXPLANATION: Immunostimulatory activity in mincle-/- C57BL/6 mouse GM-CSF derived BMDM assessed as increase in IL-1beta release at […] after 24 hrs by sandwich ELISA method
- Type: functional, cell-based
Active and inactive are the calls of the source. The rule behind the calls is not given here.

CHEMICAL_SMILES	Activity
CCCCCCCCCCCCCCCCCCOc1ccc(C(=O)OC[C@H]2O[C@H](O[C@H]3O[C@H](COC(=O)c4ccc(OCCCCCCCCCCCCCCCCCC)cc4O)[C@@H](O)[C@H](O)[C@H]3O)[C@H](O)[C@@H](O)[C@@H]2O)c(O)c1	inactive
CCCCCCCCCCCCCCCCCCOc1cc(C)c(C(=O)OC[C@H]2O[C@H](O[C@H]3O[C@H](COC(=O)c4c(C)cc(OCCCCCCCCCCCCCCCCCC)cc4O)[C@@H](O)[C@H](O)[C@H]3O)[C@H](O)[C@@H](O)[C@@H]2O)c(O)c1	inactive

----------
- System: BMDM
- ASSAY_EXPLANATION: Immunostimulatory activity in mincle-/- C57BL/6 mouse GM-CSF derived BMDM assessed as increase in IL-1beta release at […] after 24 hrs by sandwich ELISA method
- Type: functional, cell-based
Calls of active or inactive are those of the source. The calls are words filed in the database; no cut-off is given here.
ENDPOINT_NAME: Activity

CHEMICAL_SMILES	TARGET_SYSTEM	Activity
CCCCCCCOc1ccc(C(=O)OC[C@H]2O[C@H](O[C@H]3O[C@H](COC(=O)c4ccc(OCCCCCCC)cc4)[C@@H](O)[C@H](O)[C@H]3O)[C@H](O)[C@@H](O)[C@@H]2O)cc1	BMDM	inactive
CCCCOc1ccc(C(=O)OC[C@H]2O[C@H](O[C@H]3O[C@H](COC(=O)c4ccc(OCCCC)cc4O)[C@@H](O)[C@H](O)[C@H]3O)[C@H](O)[C@@H](O)[C@@H]2O)c(O)c1	BMDM	inactive
O=C(OC[C@H]1O[C@H](O[C@H]2O[C@H](COC(=O)c3ccc(O)cc3O)[C@@H](O)[C@H](O)[C@H]2O)[C@H](O)[C@@H](O)[C@@H]1O)c1ccc(O)cc1O	BMDM	inactive
COc1ccc(C(=O)OC[C@H]2O[C@H](O[C@H]3O[C@H](COC(=O)c4ccc(OC)cc4O)[C@@H](O)[C@H](O)[C@H]3O)[C@H](O)[C@@H](O)[C@@H]2O)c(O)c1	BMDM	inactive
CCCCCCCCCCCCCCCCCCOc1ccc(C(=O)OC[C@H]2O[C@H](O[C@H]3O[C@H](COC(=O)c4ccc(OCCCCCCCCCCCCCCCCCC)cc4)[C@@H](O)[C@H](O)[C@H]3O)[C@H](O)[C@@H](O)[C@@H]2O)cc1	BMDM	inactive
CCCCCCCOc1ccc(C(=O)OC[C@H]2O[C@H](O[C@H]3O[C@H](COC(=O)c4ccc(OCCCCCCC)cc4O)[C@@H](O)[C@H](O)[C@H]3O)[C@H](O)[C@@H](O)[C@@H]2O)c(O)c1	BMDM	inactive

Task: // query Activity value for entry `Cc1cc(O)cc(O)c1C(=O)OC[C@H]1O[C@H](O[C@H]2O[C@H](COC(=O)c3c(C)cc(O)cc3O)[C@@H](O)[C@H](O)[C@H]2O)[C@H](O)[C@@H](O)[C@@H]1O`
Result: inactive
